Just for reference, paper PMC5714123 is where these values come from.

TARGET DESC: SMAD3 MH1 (Homo sapiens, UniProt P84022 1-132)
Sequence (P84022 1-132): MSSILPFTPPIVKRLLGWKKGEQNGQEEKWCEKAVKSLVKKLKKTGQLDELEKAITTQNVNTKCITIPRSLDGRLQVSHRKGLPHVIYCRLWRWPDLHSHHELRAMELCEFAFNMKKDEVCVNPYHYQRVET
RUN DESCRIPTION: EMSA; Hill 3.6; EMSA: 25 mM Tris-HCl (pH not given for binding buffer; RNA stock pH 7.5), 115 mM KCl, 1 mM MgCl2, 1 mM DTT, 20 ng/ul poly I:C, 0.1 mg/ml BSA, 10% glycerol, on ice 2 h; 0.5x TBE gel at 4 C
CONDITIONS: protein: recombinant; tags: 6xHis-SUMO cleaved; label: 5' 32P (EMSA); hairpin
OBSERVED PROPERTY: Kd (µM)
Give bare numbers, in µM.

Please fill in: Kd reported for 16 30-bp hairpin (structured_RNA) RNA: GGAUCGAUCGAUCGAUCGGCAUCGAUCGGCUUCGGCCGAUCGAUGCCGAUCGAUCGAUCGAUCC = 4
